# Test system: Candida albicans
# experiment-notes: Antifungal activity against Candida albicans ATCC 76615 after 24 hrs by NCCLS two fold broth microdilution method
# Format: functional
# conditions-used: ATCC 76615, 24 h

compound	MIC, µg/mL
CCCCCCCCCCCCCCCCCCn1c(CS(=O)(=O)c2ccc(NC(C)=O)cc2)nc2ccccc21	512
CC(=O)Nc1ccc(S(=O)(=O)Cc2nc3ccccc3n2Cc2ccc(F)cc2)cc1	64
CC(=O)Nc1ccc(S(=O)(=O)Cc2nc3ccccc3n2Cc2ccc(Cl)c(Cl)c2)cc1	64
Nc1ccc(S(=O)(=O)Cc2nc3ccccc3n2Cc2cccc(Cl)c2)cc1	512
CC(=O)Nc1ccc(S(=O)(=O)Cc2nc3ccccc3n2CCCCCn2c3ccccc3c3ccccc32)cc1	512
Nc1ccc(S(=O)(=O)Cc2nc3ccccc3n2Cc2ccc(F)cc2)cc1	32
OC(Cn1cncn1)(Cn1cncn1)c1ccc(F)cc1F [FLUCONAZOLE]	1
Nc1ccc(S(=O)(=O)Cc2nc3ccccc3n2Cc2ccc(Cl)c(Cl)c2)cc1	64
CC(=O)Nc1ccc(S(=O)(=O)Cc2nc3ccccc3n2Cc2ccccc2Cl)cc1	32

* * *

# System: Escherichia coli
# experiment-notes: Antibacterial activity against Escherichia coli ATCC 8099 after 24 hrs by NCCLS two fold broth microdilution method
# Type: functional
# conditions-used: ATCC 8099, 24 h
measured-parameter: log10 of MIC (log10 of the value in µg/mL)

structure-smiles	value-observed
Nc1ccc(S(=O)(=O)Cc2nc3ccccc3n2Cc2ccc(Cl)cc2Cl)cc1	1.20
CCCCCn1c(CS(=O)(=O)c2ccc(NC(C)=O)cc2)nc2ccccc21	2.41
CCCCCCCCCCCCn1c(CS(=O)(=O)c2ccc(NC(C)=O)cc2)nc2ccccc21	2.41
CCCCCCCCCCCCCCCCCCn1c(CS(=O)(=O)c2ccc(NC(C)=O)cc2)nc2ccccc21	2.71
Nc1ccc(S(=O)(=O)Cc2nc3ccccc3n2Cc2ccc(Cl)c(Cl)c2)cc1	2.71
CCCn1c(CS(=O)(=O)c2ccc(NC(C)=O)cc2)nc2ccccc21	2.11
CCCCCCCCn1c(CS(=O)(=O)c2ccc(N)cc2)nc2ccccc21	2.71
CC(=O)Nc1ccc(S(=O)(=O)Cc2nc3ccccc3n2Cc2ccc(Cl)c(Cl)c2)cc1	2.41
Nc1ccc(S(=O)(=O)Cc2nc3ccccc3n2Cc2ccccc2F)cc1	0.60
CC(=O)Nc1ccc(S(=O)(=O)Cc2nc3ccccc3n2Cc2cccc(F)c2)cc1	2.11

* * *

# System: Candida albicans
# experiment-notes: Antifungal activity against Candida albicans ATCC 76615 after 24 hrs by NCCLS two fold broth microdilution method
# Assay type: functional
# conditions-used: ATCC 76615, 24 h
measured-parameter: MIC (µg/mL)

structure-smiles	tgt	value-observed
Nc1ccc(S(=O)(=O)Cc2nc3ccccc3n2Cc2ccc(Cl)cc2Cl)cc1	Candida albicans	16
CC(=O)Nc1ccc(S(=O)(=O)Cc2nc3ccccc3n2Cc2ccc(Cl)cc2)cc1	Candida albicans	128
CCCCCCn1c(CS(=O)(=O)c2ccc(N)cc2)nc2ccccc21	Candida albicans	512
Nc1ccc(S(=O)(=O)Cc2nc3ccccc3n2Cc2ccccc2F)cc1	Candida albicans	128
CCCn1c(CS(=O)(=O)c2ccc(N)cc2)nc2ccccc21	Candida albicans	64

* * *

# MIC per record follows
# System: Pichia norvegensis
# experiment-notes: Antifungal activity against Candida mycoderma after 24 hrs by NCCLS two fold broth microdilution method
# Type: functional
measured-parameter: MIC (µg/mL)

structure-smiles	tgt	measured-parameter	value-observed
Nc1ccc(S(=O)(=O)Cc2nc3ccccc3n2CCCCCn2c3ccccc3c3ccccc32)cc1	Pichia norvegensis	MIC	16
CC(=O)Nc1ccc(S(=O)(=O)Cc2nc3ccccc3n2Cc2ccccc2F)cc1	Pichia norvegensis	MIC	512
CC(=O)Nc1ccc(S(=O)(=O)Cc2nc3ccccc3n2Cc2ccc(Cl)cc2Cl)cc1	Pichia norvegensis	MIC	512
CCCCCCCn1c(CS(=O)(=O)c2ccc(NC(C)=O)cc2)nc2ccccc21	Pichia norvegensis	MIC	512
Nc1ccc(S(=O)(=O)Cc2nc3ccccc3n2Cc2ccc(F)cc2)cc1	Pichia norvegensis	MIC	512
CCCn1c(CS(=O)(=O)c2ccc(NC(C)=O)cc2)nc2ccccc21	Pichia norvegensis	MIC	16
Nc1ccc(S(=O)(=O)Cc2nc3ccccc3n2Cc2cccc(Cl)c2)cc1	Pichia norvegensis	MIC	512
CC(=O)Nc1ccc(S(=O)(=O)Cc2nc3ccccc3n2Cc2cccc(F)c2)cc1	Pichia norvegensis	MIC	512
CC(=O)Nc1ccc(S(=O)(=O)Cc2nc3ccccc3n2CCCCCn2c3ccccc3c3ccccc32)cc1	Pichia norvegensis	MIC	32
CC(=O)Nc1ccc(S(=O)(=O)Cc2nc3ccccc3n2Cc2ccc(Cl)cc2)cc1	Pichia norvegensis	MIC	32
CCn1c(CS(=O)(=O)c2ccc(NC(C)=O)cc2)nc2ccccc21	Pichia norvegensis	MIC	256
CC(=O)Nc1ccc(S(=O)(=O)Cc2nc3ccccc3n2Cc2ccc(Cl)c(Cl)c2)cc1	Pichia norvegensis	MIC	512
CCCCCCCCCCCCCCCCCCn1c(CS(=O)(=O)c2ccc(N)cc2)nc2ccccc21	Pichia norvegensis	MIC	64
CC(=O)Nc1ccc(S(=O)(=O)Cc2nc3ccccc3n2Cc2ccccc2Cl)cc1	Pichia norvegensis	MIC	512
Nc1ccc(S(=O)(=O)Cc2nc3ccccc3n2Cc2ccccc2F)cc1	Pichia norvegensis	MIC	8
CCCCCn1c(CS(=O)(=O)c2ccc(N)cc2)nc2ccccc21	Pichia norvegensis	MIC	512
CCCCCCCCCCCCn1c(CS(=O)(=O)c2ccc(NC(C)=O)cc2)nc2ccccc21	Pichia norvegensis	MIC	512
CC(=O)Nc1ccc(S(=O)(=O)Cc2nc3ccccc3n2Cc2cccc(Cl)c2)cc1	Pichia norvegensis	MIC	256
CCCCCCn1c(CS(=O)(=O)c2ccc(N)cc2)nc2ccccc21	Pichia norvegensis	MIC	512
CCCCCCCCCCn1c(CS(=O)(=O)c2ccc(NC(C)=O)cc2)nc2ccccc21	Pichia norvegensis	MIC	512
CCCCCCCCCCCCn1c(CS(=O)(=O)c2ccc(N)cc2)nc2ccccc21	Pichia norvegensis	MIC	512
CC(=O)Nc1ccc(S(=O)(=O)Cc2nc3ccccc3n2Cc2ccc(F)cc2)cc1	Pichia norvegensis	MIC	64
CCCCCCCCn1c(CS(=O)(=O)c2ccc(N)cc2)nc2ccccc21	Pichia norvegensis	MIC	256
Nc1ccc(S(=O)(=O)Cc2nc3ccccc3n2Cc2ccc(Cl)cc2Cl)cc1	Pichia norvegensis	MIC	512
CCCCCCn1c(CS(=O)(=O)c2ccc(NC(C)=O)cc2)nc2ccccc21	Pichia norvegensis	MIC	512
Nc1ccc(S(=O)(=O)Cc2nc3ccccc3n2Cc2ccc(Cl)cc2)cc1	Pichia norvegensis	MIC	16
Nc1ccc(S(=O)(=O)Cc2nc3ccccc3n2Cc2cccc(F)c2)cc1	Pichia norvegensis	MIC	512
CCCCCCCCCCCCCCCCCCn1c(CS(=O)(=O)c2ccc(NC(C)=O)cc2)nc2ccccc21	Pichia norvegensis	MIC	512

Origin of measurements: ChEMBL document CHEMBL4138085
